# assay-name: chemical genetic growth profiling, strain panel (AID 1159580);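 note: tested at 20 µM; growth read once vehicle control cultures reached saturation at 30 °C; 1 = growth at the plate median or of vehicle wells; lower values mean less growth of the strain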
# assay-setup: S. cerevisiae deletion strains, growth OD, locus YOR184W, strain ser1, hits give low values
Out of some 5,500 compounds screened, about 2,000 (36%) were called active. About 18% were inconclusive and are not listed. The list shows a part of the results.
Give measured normalized growth for each item. Keep answers brief.
Form: value (number only, do not type unit).

Request: Any idea what its normalized growth is? The compound is C=C1CCC(=O)C(C)CCC2C1CC2(C)C (stereo not drawn)
Response: 0.977

Request: Any idea what its normalized growth is? The compound is O=C(O)CN1C(=O)c2cccc3cccc(c23)C1=O
Response: 1.02

Request: Any idea what its normalized growth is? The compound is C/C1=C\CCC(=O)C2CC(C)(C)C2CC1 (stereo not drawn)
Response: 1

* * *

# assay-name: chemical genetic growth profiling, strain panel (AID 1159580);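 note: tested at 20 µM; growth read once vehicle control cultures reached saturation at 30 °C; 1 = growth at the plate median or of vehicle wells; lower values mean less growth of the strain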
# assay-setup: S. cerevisiae deletion strains, growth OD, locus YPR106W, strain ISR1, hits give low values
The whole screen tested about 5,500 compounds, of which about 2,000 (36%) were called active. Another 18% or so got no clear call; they are omitted. This is one part of the list.
observation-type: normalized growth
Form: value (number only, do not type unit).

Request: Any idea what its normalized growth is? The compound is CC(=O)Nc1ccc(S(=O)(=O)Nc2ccccc2Oc2ccc(Cl)cc2Cl)cc1
Response: 0.998

Request: Any idea what its normalized growth is? The compound is Cc1onc(-c2c(F)cccc2Cl)c1C(=O)NNc1cc(Cl)cc(Cl)c1
Response: 0.956

Request: Any idea what its normalized growth is? The compound is O=C(Nc1ccc(OC(F)(F)F)cc1)N1CCN(c2nc(-c3ccccc3)ns2)CC1
Response: 0.929

Request: Any idea what its normalized growth is? The compound is O=[N+]([O-])c1ccc(Sc2ssc(=S)c2-c2ccccc2)nc1
Response: 0.999

Request: Any idea what its normalized growth is? The compound is Cc1ccc(NS(=O)(=O)c2ccc(-c3csc(C)n3)s2)c(C)c1
Response: 0.988

Request: Any idea what its normalized growth is? The compound is O=C(NNc1ccc(I)cc1)c1cc(Cl)cc(Cl)c1
Response: 0.957

Request: Any idea what its normalized growth is? The compound is Cc1nc(-c2ccc(S(=O)(=O)Nc3ccc(Br)cc3Cl)s2)cs1
Response: 0.943

Request: Any idea what its normalized growth is? The compound is CC1(C)OC(=O)C(=Cc2cccn2-c2ccc(OC(F)(F)F)cc2)C(=O)O1
Response: 0.967

Request: Any idea what its normalized growth is? The compound is Cc1ccc(NS(=O)(=O)c2ccc(Cl)cc2)c(N=Cc2cc(Cl)cc(Cl)c2O)c1
Response: 0.959

Request: Any idea what its normalized growth is? The compound is FC(F)(F)c1ccnc(N2CCCN(C(=S)Nc3ccc(Cl)cc3Cl)CC2)n1
Response: 0.977

Request: Any idea what its normalized growth is? The compound is Cc1c(-c2ccnn2C(=O)c2ccco2)cnn1-c1ccccc1
Response: 0.957

Request: Any idea what its normalized growth is? The compound is O=c1c2ccccc2[nH]c(=S)n1-c1cccc(C(F)(F)F)c1
Response: 0.948

Request: Any idea what its normalized growth is? The compound is CC(=O)ON=C1c2cc([N+](=O)[O-])ccc2-c2ccc([N+](=O)[O-])cc21
Response: 0.964

Request: Any idea what its normalized growth is? The compound is CC1(C)OC(=O)C(=Cc2cccn2-c2ccc(C(F)(F)F)cc2)C(=O)O1
Response: 0.99

Request: Any idea what its normalized growth is? The compound is O=C(Nc1ccc(OC(F)(F)F)cc1)OC1CN(C(c2ccccc2)c2ccccc2)C1
Response: 0.991
